src = patent US8598193B2

# Tested on: RSV A2
# procedureSummary: RSV antiviral cytopathic effect (CPE) assay, MTT readout
# Type: cell-based
# conditionNotes: human respiratory syncytial virus, HEp-2, 120 h; RSV A2 in HEp2 cells, CPE assay, MTT, approx. 5 days; read-out: Activity Range (RSV A2 antiviral EC50), compounds of Table 2
measuredProperty: EC50

Example cases with answers are listed next.
molecule="O=C(c1ccsc1)N1CCN2C(=O)c3ccccc3C12c1ccc(Cl)cc1 (centres unmarked)" resultvalue="0.1 to 0.25 µg/mL"
molecule="CCCOc1ccc(C23c4ccccc4C(=O)N2CCN3C(=O)c2ccc(F)cc2)cc1 (centres unmarked)" resultvalue="0.1 to 0.25 µg/mL"
molecule="CCOc1ccsc1C(=O)N1CCN2C(=O)c3ccccc3C21c1ccc(Cl)cc1 (centres unmarked)" resultvalue="0.1 to 0.25 µg/mL"
molecule="COc1ccc(CC(=O)N2CCN3C(=O)c4ccccc4C23c2ccc(C)cc2)cc1 (centres unmarked)" resultvalue="0.1 to 0.25 µg/mL"
molecule="O=C(c1ccc(Cl)nc1)N1CCN2C(=O)c3ccccc3C12c1ccc(Cl)cc1 (centres unmarked)" resultvalue="0.25 to 1 µg/mL"
molecule="O=C(CSCc1ccccc1)N1CCN2C(=O)c3ccccc3C12c1ccc(Cl)cc1 (centres unmarked)" resultvalue="0.1 to 0.25 µg/mL"

Any idea what EC50 came out for O=C(c1cccs1)N1CCN2C(=O)c3ccccc3C12c1ccc(Cl)cc1 (centres unmarked) on RSV A2?
< 0.1 µg/mL

// query: O=C(c1csnn1)N1CCN2C(=O)c3ccccc3C12c1ccc(Cl)cc1 (centres unmarked)
< 0.1 µg/mL

// query: O=C(c1ccoc1)N1CCN2C(=O)c3ccccc3C12c1ccc(Cl)cc1 (centres unmarked)
0.1 to 0.25 µg/mL

// query: COCCOc1ccc(C23c4ccccc4C(=O)N2CCN3C(=O)c2ccc(F)cc2)cc1 (centres unmarked)
0.1 to 0.25 µg/mL

// query: O=C(c1ccc(F)cc1)N1CCN2C(=O)c3ccccc3C12c1cccc(Cl)c1 (centres unmarked)
0.1 to 0.25 µg/mL

// query: Cc1ccc(C23c4ccccc4C(=O)N2CCN3C(=O)NCc2ccccc2)cc1 (centres unmarked)
0.25 to 1 µg/mL

// query: CC(C)CC(=O)N1CCN2C(=O)c3ccccc3C12c1ccc(Cl)cc1 (centres unmarked)
0.25 to 1 µg/mL

// query: O=C(c1ccc(F)cc1)N1CCN2C(=O)c3ccccc3C12c1ccc(C(F)(F)F)cc1 (centres unmarked)
0.1 to 0.25 µg/mL

// query: COc1ccc(CNC(=O)N2CCN3C(=O)c4ccccc4C23c2ccc(Cl)cc2)cc1 (centres unmarked)
0.25 to 1 µg/mL

// query: CCC(=O)N1CCN2C(=O)c3ccccc3C12c1ccc(C)cc1 (centres unmarked)
0.25 to 1 µg/mL

// query: CCC(=O)N1CCN2C(=O)c3ccccc3C12c1ccc(C(F)(F)F)cc1 (centres unmarked)
0.25 to 1 µg/mL

* * *

// reported EC50 for each item listed
# Tested on: RSV A2
# procedureSummary: RSV antiviral cytopathic effect (CPE) assay, MTT readout
# Assay type: cell-based
# conditionNotes: human respiratory syncytial virus, HEp-2, 120 h; RSV A2 in HEp2 cells, CPE assay, MTT, approx. 5 days; read-out: Activity Range (RSV A2 antiviral EC50), compounds of Table 2

Example cases with answers are listed next.
compound="O=C(c1ccc(F)nc1)N1CCN2C(=O)c3ccccc3C12c1ccc(OCC2CC2)cc1 (stereo not shown)" measuredproperty=EC50 resultvalue="< 0.1 µg/mL"
compound="CCC(=O)N1CCN2C(=O)c3ccccc3C12c1ccc(Br)cc1 (stereo not shown)" measuredproperty=EC50 resultvalue="0.1 to 0.25 µg/mL"
compound="C=CCCC(=O)N1CCN2C(=O)c3ccccc3C12c1ccc(Cl)cc1 (stereo not shown)" measuredproperty=EC50 resultvalue="0.25 to 1 µg/mL"

Next up:
For the compound shown here, CC(C)Oc1ccc(C23c4ccccc4C(=O)N2CCN3C(=O)c2ccc(F)cc2)cc1 (stereo not shown) , give the reported EC50.
0.25 to 1 µg/mL
